tested on: IL-6 secretion by LOX human melanoma cells; assay: IL-6 secretion by LOX melanoma cells (ELISA); assay type: cell-based; conditions: Homo sapiens; LOX melanoma cell line, 24 hours; read-out: mean calculated IC50, IL-6 protein level
QUANTITY_MEASURED: IC50 (nM)

1) CCNc1cc(O)c2c(c1)/C=C/C[C@H](O)[C@H](O)C(=O)/C=C\[C@@H](C)[C@H](C)OC2=O [Compound 106] :: 21.8
